// data source = ChEMBL document CHEMBL5380795

Test system: Pseudomonas aeruginosa
Test: Antibacterial activity against carbapenem resistant Pseudomonas aeruginosa clinical isolate 17-1 assessed as inhibition of bacterial growth incubated for 18 to 24 hrs by broth microdilution method
Format: functional
Conditions: time 18-24 hrs
MIC: recorded values
Give the value, in units of µg/mL, as a plain number.

Example compounds with recorded MIC:
smiles-record: CCCCCCC[C@@H](O)CC(=O)N[C@H](CCN)C(=O)N[C@H]1CCNC(=O)[C@H](CC(C)C)NC(=O)[C@H](CCN)NC(=O)[C@H](CCN)NC(=O)[C@H](CC(C)C)NC(=O)[C@@H](CC(C)C)NC(=O)[C@H](CCN)NC1=O
assay-result: 2

smiles-record: CCCCCCCCCC(=O)N[C@H](CCN)C(=O)N[C@H]1CCNC(=O)[C@H]([C@@H](C)O)NC(=O)[C@H](CCN)NC(=O)[C@H](CCN)NC(=O)[C@H](CC(C)C)NC(=O)[C@@H](Cc2ccccc2Cl)NC(=O)[C@H](CCN)NC1=O
assay-result: 64

smiles-record: CCCCCCCCC(=O)N[C@H](CCN)C(=O)N[C@H]1CCNC(=O)[C@H](CC(C)C)NC(=O)[C@H](CCN)NC(=O)[C@H](CCN)NC(=O)[C@H](CC(C)C)NC(=O)[C@@H](CC(C)C)NC(=O)[C@H](CCN)NC1=O
assay-result: 2

smiles-record: CCCCCCCCCC(=O)N[C@H](CCN)C(=O)N[C@H]1CCNC(=O)[C@H]([C@@H](C)O)NC(=O)[C@H](CCN)NC(=O)[C@H](CCN)NC(=O)[C@H](CC(C)C)NC(=O)[C@@H](Cc2ccc(C(C)(C)C)cc2)NC(=O)[C@H](CCN)NC1=O
assay-result: 4

smiles-record: CCCCCCC[C@@H](O)CC(=O)N[C@H](CCN)C(=O)N[C@H]1CCNC(=O)[C@H]([C@@H](C)O)NC(=O)[C@H](CCN)NC(=O)[C@H](CCN)NC(=O)[C@H]([C@@H](C)O)NC(=O)[C@@H](Cc2ccccc2)NC(=O)[C@H](CCN)NC1=O
assay-result: 0.5

smiles-record: CCCCCCCCCC(=O)N[C@H](CCN)C(=O)N[C@H]1CCNC(=O)[C@H](Cc2ccccc2)NC(=O)[C@H](CCN)NC(=O)[C@H](CCN)NC(=O)[C@H](Cc2ccccc2)NC(=O)[C@@H](CC(C)C)NC(=O)[C@H](CCN)NC1=O
assay-result: 8

We next turn to a different compound, shown below.
// sample CCCCCCC[C@@H](O)CC(=O)N[C@H](CO)C(=O)N[C@H](CCN)C(=O)N[C@H]1CCNC(=O)[C@H](CC(C)C)NC(=O)[C@H](CCN)NC(=O)[C@H](CCN)NC(=O)[C@H](Cc2ccccc2)NC(=O)[C@@H](CC(C)C)NC(=O)[C@H](CCN)NC1=O , its MIC was 2

###

System: Pseudomonas aeruginosa
Assay: Antibacterial activity against carbapenem resistant Pseudomonas aeruginosa clinical isolate 17-1 assessed as inhibition of bacterial growth incubated for 18 to 24 hrs by broth microdilution method
Format: functional
Details: time 18-24 hrs
# note: boundary value 20 µg/mL maps to false (0); MIC below it maps to true (1)

// below: answered compounds
smiles-record: CCCCCCCCCC(=O)N[C@H](CCN)C(=O)N[C@H]1CCNC(=O)[C@H]([C@@H](C)O)NC(=O)[C@H](CCN)NC(=O)[C@H](CCN)NC(=O)[C@H](CC(C)C)NC(=O)[C@@H](CC(C)C)NC(=O)[C@H](CCCCN)NC1=O
qualitative-label: false (0)
--
smiles-record: CCCCCCCC(=O)N[C@H](CCN)C(=O)N[C@H]1CCNC(=O)[C@H](CC(C)C)NC(=O)[C@H](CCN)NC(=O)[C@H](CCN)NC(=O)[C@H](CC(C)C)NC(=O)[C@@H](CC(C)C)NC(=O)[C@H](CCN)NC1=O
qualitative-label: true (1)
--
smiles-record: CCCCCCCCCC(=O)N[C@H](CCN)C(=O)N[C@H]1CCNC(=O)[C@H]([C@@H](C)O)NC(=O)[C@H](CCN)NC(=O)[C@H](CCN)NC(=O)[C@@H](CC(C)C)NC(=O)[C@@H](CC(C)C)NC(=O)[C@H](CCN)NC1=O
qualitative-label: false (0)
--
smiles-record: CCCCCCC[C@@H](O)CC(=O)N[C@H](CCN)C(=O)N[C@H]1CCNC(=O)[C@H]([C@@H](C)O)NC(=O)[C@H](CCN)NC(=O)[C@H](CCN)NC(=O)[C@H]([C@@H](C)O)NC(=O)[C@@H](CC(C)C)NC(=O)[C@H](CCN)NC1=O
qualitative-label: true (1)
--
smiles-record: C[C@@H](O)[C@H]1C(=O)N2C(C(=O)O)=C(S[C@@H]3CN[C@H](C(=O)N(C)C)C3)[C@H](C)[C@H]12
qualitative-label: false (0)
--
smiles-record: CCCCCCCCCC(=O)N[C@H](CCN)C(=O)N[C@H]1CCNC(=O)[C@H](CO)NC(=O)[C@H](CCN)NC(=O)[C@H](CCN)NC(=O)[C@H](Cc2ccccc2)NC(=O)[C@@H](CC(C)C)NC(=O)[C@H](CCN)NC1=O
qualitative-label: false (0)
--
smiles-record: CCCCCCCCCC(=O)N[C@H](CCN)C(=O)N[C@H]1CCNC(=O)[C@H]([C@@H](C)O)NC(=O)[C@H](CCN)NC(=O)[C@H](CCN)NC(=O)[C@H](CC(C)C)NC(=O)[C@H](CC(C)C)NC(=O)[C@H](CCN)NC1=O
qualitative-label: false (0)

--- query ---
I'd appreciate it if you could check whether CCCCCCCCCC(=O)N[C@H](CCN)C(=O)N[C@H]1CCNC(=O)[C@H]([C@@H](C)O)NC(=O)[C@H](CCN)NC(=O)[C@H](CCN)NC(=O)[C@H](CC(C)C)NC(=O)[C@@H](Cc2ccc(Cl)c(Cl)c2)NC(=O)[C@H](CCN)NC1=O has MIC smaller than 20 µg/mL.
true (1)
